Sourced from paper PMC3965624

target: NTSR1 (Homo sapiens, UniProt P30989); test: […]-Tyr3-NTS radioligand displacement on intact NCI-H1299 cells
Sequence (P30989 whole entry): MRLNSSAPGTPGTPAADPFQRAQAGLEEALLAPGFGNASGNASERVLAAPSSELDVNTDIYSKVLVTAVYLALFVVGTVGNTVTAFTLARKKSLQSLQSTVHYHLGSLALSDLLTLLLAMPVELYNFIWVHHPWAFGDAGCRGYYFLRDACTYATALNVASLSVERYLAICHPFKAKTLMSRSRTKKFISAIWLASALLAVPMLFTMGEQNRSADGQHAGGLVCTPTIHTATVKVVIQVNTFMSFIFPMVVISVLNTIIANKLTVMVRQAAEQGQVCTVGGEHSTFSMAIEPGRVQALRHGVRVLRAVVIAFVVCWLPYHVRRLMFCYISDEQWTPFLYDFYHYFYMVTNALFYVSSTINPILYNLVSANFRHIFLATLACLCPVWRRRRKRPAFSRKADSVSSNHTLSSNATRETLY
readout_name: IC50 (nM)
Numbers only, in nM.

INPUT: // map COc1cccc(OC)c1-c1cc(C(=O)NC2(C(=O)O)C3CC4CC(C3)CC2C4)nn1-c1ccnc2cc(Cl)ccc12 (stereo not shown) [SR48692] to recorded IC50 (system: NTSR1 (Homo sapiens, UniProt P30989))
OUTPUT: 205
